Just for reference, the supplement of paper PMC9170038 is where these values come from.

# Tested on: MS2 coat protein
# procedure.text: apparent KD of MS2 coat protein; designed switch direction (-1 OFF switch, 1 ON switch): -1; higher = weaker reporter binding
# condition.details: Eterna round: R95; input ligand: none
Reported apparent KD of MS2 coat protein by item:
Please state the figure in nM; there is no need to write the unit.

| seq.text | measured.on | readout.label | reported |
| --- | --- | --- | --- |
| AAAGAACAUGAGGAUCACCCAUGUAAGGAUAUCCAAAAGAAGGAAAGAAAGAAAAGAAGGAGAAGGUACAAGAA [JR_Exclu1_Sub041] (puzzle: Exclusion 1) | MS2 coat protein | apparent KD of MS2 coat protein | 84.5 |
| UUUAAUUUUUUUUUUUUACAAGCUUUUUGCUCGUCUUAUACAUGAGGAUCACCCAUGUAGGUGAGGAGUAAAUUAUC [JMF 62] (puzzle: Sensor v3, turn-off variant 2) | MS2 coat protein | apparent KD of MS2 coat protein | 14.8 |
| AAAUAUAAGCAAAGAUCCUACAUGAGGAUCACCCAUGUGCUCGUCUUAUAAAGUACUAUCACGAAAGUGAUAGUACA [Sensor 3, v1 - 19] (puzzle: Sensor v3, turn-off variant 1) | MS2 coat protein | apparent KD of MS2 coat protein | 215 |
| AGAAUUGCCCAUGGCCGCAAGCUUUUUGCUUGUCUUACCACAUGAGGAUCACCCAUGUGACAUGGGCUCCUUAUAAU [Anargees] (puzzle: Sensor v3, turn-off variant 2) | MS2 coat protein | apparent KD of MS2 coat protein | 11.8 |

Asked: Write down the reported apparent KD of MS2 coat protein of AGACAGUCAGGAUAUACAUGAGGAUCACCCAUGUUGAGAUGUGAAAGGGCGGGAGUAGGUAGAAGGGACGAGAG [JR_Exclu3_Sub039] (puzzle: Exclusion 3) , test system: MS2 coat protein.
Given back: 37.5

* * *

# Test system: MS2 coat protein
# procedure.text: apparent KD of MS2 coat protein; designed switch direction (-1 OFF switch, 1 ON switch): -1; higher = weaker reporter binding
# condition.details: input ligand: none
Recorded measurements of apparent KD of MS2 coat protein, one per entry
Dear colleague, please return just the value in nM, with no unit written.

# count of solved cases: 5
| seq.text | unit.tag | apparent KD of MS2 coat protein |
| --- | --- | --- |
| GAUCAUGCAGGAUAUACAUGGAACAUUAAAUCAUGAAUUUCACAUGAGGAUCACCCAUGUAGAAGGGCAUGAUC [Omei Ex2 A16] (Eterna round: R97, puzzle: Exclusion 2) | nM | 31.6 |
| GGGUGCAGGCUGAGGUCCUACAUGAGGAUCACCCAUGUGGUCCGGUGGCGUGGGUCGCCGGACUUGGCUCGUCUUGU [salish99_S_TOV1_R5_013] (Eterna round: R97, puzzle: Sensor, turn-off variant 1) | nM | 45.8 |
| CAGUACUGAGGAUAUACAUGAGGAUCACCCAUGUUUUCCAGCUAGGAAACUAGCAAAUGUAGAAGGCAGUACUG [Salish 065 m5] (Eterna round: R97, puzzle: Exclusion 3) | nM | 25.4 |
| AGACUUAUAGGAUAUACAUGAGGAUCACCCAUGUCGCCAGGCGGUAGCAGAGUCUUUUGUAGAAGGAUGACAAC [Eternabot (Original) Solution 35] (Eterna round: R97, puzzle: Exclusion 3) | nM | 21.2 |
| CAGUACAGAGGAUAUACAUGAGGAUCACCCAUGUGUUCCAGCUAGGAAACUAGCGAAUGUAGAAGGCUGUACUG [jl-ex3-4.23 salish99 mod] (Eterna round: R97, puzzle: Exclusion 3) | nM | 273 |

Asked: I would be grateful if you could share the reported apparent KD of MS2 coat protein for CUAAAUCAUGUAGGAUAUGCGUGGCAAAGCUAUGCAGAAGGACAUGAGGAUCACCCAUGUCAUUCCGUCUGGAAACAGACGGGA [Mat - Exclusion NG 1 - Mod of JL - D53] (Eterna round: R96, puzzle: Exclusion NG 1) .
Given back: 22.8

Asked: # query: apparent KD of MS2 coat protein of entry AAGUCGAGCGUGAGGAUAUUGACCGGACGACCCAUCGAGAAGGCACAUGAGGAUCACCCAUGUGAUUCAGCUCA [Brourd's EX4 #52] (Eterna round: R97, puzzle: Brourd's mod of Exclusion 4)
Given back: 15.5

Asked: apparent KD of MS2 coat protein for GACCCGUCAGGAUAUACAUGAGGAUCACCCAUGUAAUCAGCGAUAGGACAAGGCUCACGUAGAAGGGACAGGGU [Eternabot (L1) Solution 33] (Eterna round: R97, puzzle: Exclusion 3) ?
Given back: 22.8

Asked: Can you share its apparent KD of MS2 coat protein? I mean this sequence: UCUAGUUGGUAAGGAUAUCCUACAUUGUUCUGGCCCGGGCAUGCUACAUGAGGAUCACCCAUGUGGGAGAAGGUGCGUCAUUGC [Design 21] (Eterna round: R96, puzzle: Exclusion NG 2)
Given back: 61.9

* * *

Listing: apparent KD of MS2 coat protein of selected sequences
# Tested on: MS2 coat protein
# procedure.text: apparent KD of MS2 coat protein; higher = weaker reporter binding
# condition.details: Eterna round: R107; input ligand: theophylline 20 uM
The answer is to be given in nM; state only the numeric part.

The following sequences have reported results that may help.
| seq.text | apparent KD of MS2 coat protein, nM |
| --- | --- |
| UUCUGGUCCCGUGAUACCAGAGACAUGAGGAUCACCCAUGUACAUGAGGAUCACCCAUGUUUCCCUUGGCAGCACUGUAGGGAGC [Exclusion Theophylline B GF 16] | 226 |
| AGCCACUCGAGUGAUCCUCACGAGUGGCAACGAGGACCGGUACGGCCGCCACUCGAAUAACAUGAGGAUCACCCAUGUUUAUAAU [#01 Tryptophan A - Same State] | 176 |
| GCGAUGGAGCGAAGGAGCGGCUAAAUGUAUCACAUGAGGAUCACCCAUGUUCCAGGAUGUGGCCAGGUAGGUCGCGCUCCAUCGC [SSAB NP+V+V2 #16] | 212 |

Asked: Given the sequence AAUAACAUGAGGAUCACCCAUGUAAAAGAUACCAGAGUGAUGAUCCUCCCUUGGCAGCUUAAACGCUAUUGAUUACAAUAGCGAA [Mat - Same State Theophlline A - Mod of Eli - D2] , what is its reported apparent KD of MS2 coat protein?
Given back: 114

Asked: I would be grateful if you could share the reported apparent KD of MS2 coat protein for ACAUGAGGAUCACCCAUGUCAUGAGGUUCACGAGGACCGGUACGGCCGCCACUCGACAUGAGGGUCACCCGUGAACGGAACACCC [kpmullin] .
Given back: 23.6

Asked: What apparent KD of MS2 coat protein value was documented for this sequence, AAUAAUAUCCUCAUGUGAGUCGUACCGUAACGAGGACCGGUACGGCCGCCACUCGAACAUGAGGAUCACCCAUGUAGGUACGACA [M'-T'-T-MS2-T'' - Design 8] ?
Given back: 182

* * *

# Tested on: MS2 coat protein
# procedure.text: apparent KD of MS2 coat protein, switch OFF state (with FMN for OFF switches, without FMN for ON switches); designed switch direction (-1 OFF switch, 1 ON switch): -1; higher = weaker reporter binding
# condition.details: FMN input: 0 or 200 uM; Eterna round: R93 (includes R88 designs)
T means recorded apparent KD of MS2 coat protein is 30 nM or above; F means it is below 30 nM.

| seq.text | class.label |
| --- | --- |
| AACAGUACAGGAUAUACAUGAGGAUCACCCAUGUGAAAAUUAAGUGGGAGACCACAAGGUAGAAGGGUACUGGA [Mat - Exclusion 3 - Eli mod - D65] | T |
| AAAAAACAUGAGGAUCACCCAUGUGAGGAUAUCGAAAAGUUAAAGAAAAAGACGAAAAUGAGAAGGCGCAAAAA [Fiskers Exclusion D1] | F |
| AAGAACGCAGGAUAUACUAAAGAAAUGAAAAGAAAUAAAGAACAUGAGGAUCACCCAUGUAGAAGGGCGAAGAA [Merdjefare] | T |
| AAAGGACAUGAGGAUCACCCAUGUGAGGAUAUGACGUAAAUAAAGAAAGAAGAAAUCGUCAGAAGGCACACCUA [55%, Disencluded 2, 2] | T |

Asked: Is reported apparent KD of MS2 coat protein greater than or equal to 30 nM here: UUUAAGUGAGGAUAUACGAAUAGUAAGUAAGUAUAACAGACGUAGAAGGCACAUGAGGAUCACCCAUGUAAAUA [JR_Exc004_Sub305]
Given back: F

Asked: Answer whether apparent KD of MS2 coat protein of AAGAACACAGGAUAUACAUGAGGAUCACCCAUGUAAAAGAAAGAGGGAAAAGAGAAAAGUAGAAGGGUGAAGAA [Hugronaphor] is greater than or equal to 30 nM.
Given back: T

Asked: Could you tell me if the measured apparent KD of MS2 coat protein of `AACAUGUAAGGAUAUGCUGCUCGUCACGAAAGUGAUGAGUAGCAGAAGGUACAUGAGGAUCACCCAUGUAAAGA` reaches 30 nM or more?
Given back: T

Asked: Quick check: does AAAAAGUGAGGAUAUACGUUGAAGAGAAAACACAUCCAGGCGUAGAAGGCACAUGAGGAUCACCCAUGUACAAA [Ex4 Malc#7] have apparent KD of MS2 coat protein greater than or equal to 30 nM?
Given back: F

Asked: Check the entry GUGUACAGAGGAUAUACAUGAGCAUGGAAACAUGCAGGAUCACAUGAGGAUCACCCAUGUAGAAGGCUGUACAC [Ex2: 732] : does apparent KD of MS2 coat protein equal or exceed 30 nM?
Given back: F

Asked: Does the sequence GGGCCACAUGAGGAUCACCCAUGUAAGGAUAUGCUAGGGAGGGAAAAAAUUUCGCCAGGCAGAAGGUACUAAAG [Janelle Amethyst 18 Mod 7 - Jieux - Exclusion 1] have recorded apparent KD of MS2 coat protein that is 30 nM or more?
Given back: T

Asked: Evaluate CCAAAGUGAGGAUAUACGCGAACAAAAAAAAAAAAGAAAGCGUAGAAGGCACAUGAGGAUCACCCAUGUCCAGG [Alfred 64% 1] : apparent KD of MS2 coat protein at minimum 30 nM?
Given back: T

Asked: Would you say AAAAAGGGAGGAUAUACAUGAGGAUCACCCAUGUAUCAGACGAAAAAGAGUCUGGAAUGUAGAAGGCCCAAAAA [65%, Moding Exclusion3-cac2, 3] shows apparent KD of MS2 coat protein at minimum 30 nM?
Given back: F
